Record form. Attribute: IC50 at 48 h. Fill in for each entry.
ASSAY_METHOD_TEXT: MTT cytotoxicity assay, normal hepatocyte HL-7702
Type: cell-based
STATED_CONDITIONS: HL-7702 cells (normal hepatocyte cell line), normal human hepatocyte cell line, drug exposure 48 h, mean ± SD (n = 3), read-out: Cytotoxic activity (IC50) HL-7702
Numeric only. Scale: µM

Qu. Field request: IC50 at 48 h | item: COc1cc([C@@H]2c3cc4c(cc3[C@@H](Nc3nncs3)[C@H]3COC(=O)[C@H]23)OCO4)cc(OC)c1O [2′N]
Ans. 28.7

Qu. Field request: IC50 at 48 h | item: COc1cc([C@@H]2c3cc4c(cc3[C@@H](Nc3ncccn3)[C@H]3COC(=O)[C@H]23)OCO4)cc(OC)c1O [4′N]
Ans. 41.8

Qu. Field request: IC50 at 48 h | item: COc1cc([C@@H]2c3cc4c(cc3[C@@H](Sc3ncccn3)[C@H]3COC(=O)[C@H]23)OCO4)cc(OC)c1O [4′S]
Ans. 140

Qu. Field request: IC50 at 48 h | item: COc1cc([C@@H]2c3cc4c(cc3[C@@H](O[C@@H]3O[C@@H]5CO[C@@H](C)O[C@H]5[C@H](O)[C@H]3O)[C@H]3COC(=O)[C@H]23)OCO4)cc(OC)c1O [etoposide, reference compound]
Ans. 24.6

Qu. Field request: IC50 at 48 h | item: COc1cc([C@@H]2c3cc4c(cc3[C@@H](Nc3ccccn3)[C@H]3COC(=O)[C@H]23)OCO4)cc(OC)c1OC [Compound 3N]
Ans. 28.2

Qu. Field request: IC50 at 48 h | item: COc1cc([C@@H]2c3cc4c(cc3[C@@H](Sc3ncnc5nc[nH]c35)[C@H]3COC(=O)[C@H]23)OCO4)cc(OC)c1O [6′S]
Ans. 27.5

Qu. Field request: IC50 at 48 h | item: COc1cc([C@@H]2c3cc4c(cc3[C@@H](Nc3nncs3)[C@H]3COC(=O)[C@H]23)OCO4)cc(OC)c1OC [Compound 2N]
Ans. 18.7

Qu. Field request: IC50 at 48 h | item: COc1cc([C@@H]2c3cc4c(cc3[C@@H](Nc3nc[nH]n3)[C@H]3COC(=O)[C@H]23)OCO4)cc(OC)c1OC [Compound 1N]
Ans. 21.2

Qu. Field request: IC50 at 48 h | item: COc1cc([C@@H]2c3cc4c(cc3[C@@H](Nc3nc5ccccc5s3)[C@H]3COC(=O)[C@H]23)OCO4)cc(OC)c1O [5′N]
Ans. 18.6

Qu. Field request: IC50 at 48 h | item: COc1cc([C@@H]2c3cc4c(cc3[C@@H](Sc3nncs3)[C@H]3COC(=O)[C@H]23)OCO4)cc(OC)c1OC [Compound 2S]
Ans. 36.2

---

Record form. Attribute: IC50 at 48 h. Fill in for each entry.
ASSAY_METHOD_TEXT: MTT cytotoxicity assay, normal hepatocyte HL-7702
Format: cell-based
STATED_CONDITIONS: HL-7702 cells (normal hepatocyte cell line), normal human hepatocyte cell line, drug exposure 48 h, mean ± SD (n = 3), read-out: Cytotoxic activity (IC50) HL-7702
Numeric only. Scale: µM

Qu. Field request: IC50 at 48 h | item: COc1cc([C@@H]2c3cc4c(cc3[C@@H](Sc3nc[nH]n3)[C@H]3COC(=O)[C@H]23)OCO4)cc(OC)c1OC
Ans. 56.1

Qu. Field request: IC50 at 48 h | item: COc1cc([C@@H]2c3cc4c(cc3[C@@H](Nc3nc5ccccc5s3)[C@H]3COC(=O)[C@H]23)OCO4)cc(OC)c1OC
Ans. 5.33

Qu. Field request: IC50 at 48 h | item: COc1cc([C@@H]2c3cc4c(cc3[C@@H](Nc3ncnc5nc[nH]c35)[C@H]3COC(=O)[C@H]23)OCO4)cc(OC)c1O
Ans. 19.2

Qu. Field request: IC50 at 48 h | item: COc1cc([C@@H]2c3cc4c(cc3[C@@H](Sc3ccccn3)[C@H]3COC(=O)[C@H]23)OCO4)cc(OC)c1OC
Ans. 89.7

Qu. Field request: IC50 at 48 h | item: COc1cc([C@@H]2c3cc4c(cc3[C@@H](Nc3ccccn3)[C@H]3COC(=O)[C@H]23)OCO4)cc(OC)c1O
Ans. 122

Qu. Field request: IC50 at 48 h | item: COc1cc([C@@H]2c3cc4c(cc3[C@@H](Sc3nc[nH]n3)[C@H]3COC(=O)[C@H]23)OCO4)cc(OC)c1O
Ans. 43.2

Qu. Field request: IC50 at 48 h | item: COc1cc([C@@H]2c3cc4c(cc3[C@@H](Nc3ncccn3)[C@H]3COC(=O)[C@H]23)OCO4)cc(OC)c1OC
Ans. 47.3

Qu. Field request: IC50 at 48 h | item: COc1cc([C@@H]2c3cc4c(cc3[C@@H](Sc3nc5ccccc5s3)[C@H]3COC(=O)[C@H]23)OCO4)cc(OC)c1O
Ans. 98.5

Qu. Field request: IC50 at 48 h | item: COc1cc([C@@H]2c3cc4c(cc3[C@@H](Nc3nc[nH]n3)[C@H]3COC(=O)[C@H]23)OCO4)cc(OC)c1O
Ans. 38.6

Qu. Field request: IC50 at 48 h | item: COc1cc([C@@H]2c3cc4c(cc3[C@@H](Sc3ncccn3)[C@H]3COC(=O)[C@H]23)OCO4)cc(OC)c1OC
Ans. 51.1

Qu. Field request: IC50 at 48 h | item: COc1cc([C@@H]2c3cc4c(cc3[C@@H](Sc3nc5ccccc5s3)[C@H]3COC(=O)[C@H]23)OCO4)cc(OC)c1OC
Ans. 31.8

Qu. Field request: IC50 at 48 h | item: COc1cc([C@@H]2c3cc4c(cc3[C@@H](Nc3ncnc5nc[nH]c35)[C@H]3COC(=O)[C@H]23)OCO4)cc(OC)c1OC
Ans. 13.6

Qu. Field request: IC50 at 48 h | item: COc1cc([C@@H]2c3cc4c(cc3[C@@H](Sc3ncnc5nc[nH]c35)[C@H]3COC(=O)[C@H]23)OCO4)cc(OC)c1OC
Ans. 20.6
